I'd appreciate it if you could supply Emax values for the items below.
- tested system: hNurr1_RXRαFL (NURR1/RXRα heterodimer) (Homo sapiens, UniProt P19793+P43354)
- Sequence (P19793 whole entry, the tested form may be a part): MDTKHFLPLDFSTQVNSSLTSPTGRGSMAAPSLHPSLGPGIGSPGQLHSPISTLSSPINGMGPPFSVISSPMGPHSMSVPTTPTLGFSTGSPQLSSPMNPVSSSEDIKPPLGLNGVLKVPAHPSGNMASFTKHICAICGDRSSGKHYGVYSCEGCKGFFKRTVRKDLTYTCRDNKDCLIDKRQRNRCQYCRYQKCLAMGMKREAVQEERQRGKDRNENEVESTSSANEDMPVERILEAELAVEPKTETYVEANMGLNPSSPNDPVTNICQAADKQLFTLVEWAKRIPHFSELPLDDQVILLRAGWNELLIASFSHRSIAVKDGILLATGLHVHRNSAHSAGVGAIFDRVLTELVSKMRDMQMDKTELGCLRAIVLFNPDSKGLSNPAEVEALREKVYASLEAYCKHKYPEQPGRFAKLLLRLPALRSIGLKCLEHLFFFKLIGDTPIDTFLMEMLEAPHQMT
- Sequence (P43354 328-598): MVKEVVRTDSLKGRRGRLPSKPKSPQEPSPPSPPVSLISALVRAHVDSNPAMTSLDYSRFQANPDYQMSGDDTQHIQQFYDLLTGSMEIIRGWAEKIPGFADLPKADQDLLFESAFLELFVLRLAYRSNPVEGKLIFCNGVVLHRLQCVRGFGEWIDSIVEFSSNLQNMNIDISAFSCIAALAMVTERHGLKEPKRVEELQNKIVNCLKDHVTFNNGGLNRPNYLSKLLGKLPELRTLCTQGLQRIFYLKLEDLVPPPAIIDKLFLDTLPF
- test: Transactivation assay in Cos-7 cells, NURR-1-Gal4 / RXRα, luciferase reporter
- Assay type: cell-based
- settings: COS-7, read-out: hNurr1_RXRαFL Eff (%), efficacy in % relative to the reference XCT0135908 at 2·10^−5 M (=100%)
Write down the numeric answer in % and omit the unit.

Field: Emax (hNurr1_RXRαFL (NURR1/RXRα heterodimer) (Homo sapiens, UniProt P19793+P43354)). Entry: CN1CCOc2ccc(S(=O)(=O)n3c(Cc4ccc(C(=O)O)c(Cl)c4)cc4cc(C(F)(F)F)ccc43)cc21
83

Field: Emax (hNurr1_RXRαFL (NURR1/RXRα heterodimer) (Homo sapiens, UniProt P19793+P43354)). Entry: O=C(O)c1ccc(Cc2cc3cc(C(F)(F)F)ccc3n2S(=O)(=O)c2cccc(Cl)c2)cc1
33

Field: Emax (hNurr1_RXRαFL (NURR1/RXRα heterodimer) (Homo sapiens, UniProt P19793+P43354)). Entry: CC(C)(C)c1ccc(S(=O)(=O)n2c(Cc3ccc(C(=O)O)cc3)cc3cc(C(F)(F)F)ccc32)cc1
46

Field: Emax (hNurr1_RXRαFL (NURR1/RXRα heterodimer) (Homo sapiens, UniProt P19793+P43354)). Entry: CC(C)(C)c1cccc(S(=O)(=O)n2c(Cc3ccc(C(=O)O)cc3)cc3cc(C(F)(F)F)ccc32)c1
73

Field: Emax (hNurr1_RXRαFL (NURR1/RXRα heterodimer) (Homo sapiens, UniProt P19793+P43354)). Entry: CCC(C)(C)c1ccc(S(=O)(=O)n2c(Cc3ccc(C(=O)O)cc3)cc3cc(C(F)(F)F)ccc32)cc1
54

Field: Emax (hNurr1_RXRαFL (NURR1/RXRα heterodimer) (Homo sapiens, UniProt P19793+P43354)). Entry: CC(C)c1ccc(S(=O)(=O)n2c(Cc3ccc(C(=O)O)c(F)c3)cc3cc(C(F)(F)F)ccc32)cc1
63

Field: Emax (hNurr1_RXRαFL (NURR1/RXRα heterodimer) (Homo sapiens, UniProt P19793+P43354)). Entry: C=C(c1ccc(C(=O)O)s1)c1cc2cc(C(F)(F)F)ccc2n1S(=O)(=O)c1cccc(C(C)(C)C)c1
54

Field: Emax (hNurr1_RXRαFL (NURR1/RXRα heterodimer) (Homo sapiens, UniProt P19793+P43354)). Entry: O=C(O)c1ccc(Cc2cc3cc(C(F)(F)F)ccc3n2S(=O)(=O)c2ccc(Oc3ccccc3)nc2)cc1
30

Field: Emax (hNurr1_RXRαFL (NURR1/RXRα heterodimer) (Homo sapiens, UniProt P19793+P43354)). Entry: Cn1nccc1-c1cccc(S(=O)(=O)n2c(Cc3ccc(C(=O)O)cc3)cc3cc(C(F)(F)F)ccc32)c1
54

Field: Emax (hNurr1_RXRαFL (NURR1/RXRα heterodimer) (Homo sapiens, UniProt P19793+P43354)). Entry: CC(C)(C)c1cccc(S(=O)(=O)n2c(Cc3cncc(C(=O)O)c3)cc3cc(C(F)(F)F)ccc32)c1
102

Field: Emax (hNurr1_RXRαFL (NURR1/RXRα heterodimer) (Homo sapiens, UniProt P19793+P43354)). Entry: CC(C)(C)c1cccc(S(=O)(=O)n2c(Cc3ccc(S(N)(=O)=O)cc3)cc3cc(C(F)(F)F)ccc32)c1
84

Field: Emax (hNurr1_RXRαFL (NURR1/RXRα heterodimer) (Homo sapiens, UniProt P19793+P43354)). Entry: CN1CCOc2ccc(S(=O)(=O)n3c(Cc4cc(C(=O)O)co4)cc4cc(C(F)(F)F)ccc43)cc21
138

Field: Emax (hNurr1_RXRαFL (NURR1/RXRα heterodimer) (Homo sapiens, UniProt P19793+P43354)). Entry: CC(C)(C)c1cccc(S(=O)(=O)n2c(C(=O)c3ccc(C(=O)O)cc3)cc3cc(C(F)(F)F)ccc32)c1
57

Field: Emax (hNurr1_RXRαFL (NURR1/RXRα heterodimer) (Homo sapiens, UniProt P19793+P43354)). Entry: CC(C)(C)c1cccc(S(=O)(=O)n2c(Cc3ccc(C(=O)O)o3)cc3cc(C(F)(F)F)ccc32)c1
79

The measured values listed here are drawn from patent US20120232070A1.
